- Test system: Escherichia coli TOP10;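 also: peptides expressed intracellularly from a pBAD plasmid library in pooled LB shake-flask culture, induced with 0.3% L-arabinose, DNA abundance read by NGS, three biological replicates, DESeq2 with apeglm shrinkage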
- method-notes: shrunken log2 fold change of peptide-encoding DNA abundance (4.5 h post-induction vs induction); higher = less antimicrobial activity (less host growth inhibition)
- setup-conditions: time post-induction: 4.5 h; library: site-saturation at positions 5, 18, 19, 20
readout-label: shrunken log2 fold change
Answers are plain numbers.

{"seq-text": "RRIRDRPPRLPRPRPRPYFGPRP", "subject-of-test": "Escherichia coli TOP10", "readout-label": "shrunken log2 fold change", "meas-value": -0.551}
{"seq-text": "RRIRLRPPRLPRPRPRPWYSPRP", "subject-of-test": "Escherichia coli TOP10", "readout-label": "shrunken log2 fold change", "meas-value": -0.103}
{"seq-text": "RRIRARPPRLPRPRPRPDQEPRP", "subject-of-test": "Escherichia coli TOP10", "readout-label": "shrunken log2 fold change", "meas-value": 0.0233}
{"seq-text": "RRIRKRPPRLPRPRPRPVMDPRP", "subject-of-test": "Escherichia coli TOP10", "readout-label": "shrunken log2 fold change", "meas-value": -0.0489}

Could you now consider this next sequence?
Which measured shrunken log2 fold change belongs to RRIRTRPPRLPRPRPRPFAKPRP , tested on Escherichia coli TOP10? -0.0867

Data origin, for the record: the supplement of paper PMC9112550
